Tested on: SF-268 CNS
Method: NCI tumour cell line growth inhibition, 48 h
Item-by-item account of TGI

In the examples that follow, each entry is paired with its recorded TGI.
[
  {
    "Compound": "O=C(O)CN1CCSc2ccccc2CN(CC(=O)O)CCSc2ccccc2C1",
    "Measure name": "TGI",
    "Reported measurement": "> 100 µM"
  },
  {
    "Compound": "O=c1[nH]c2ccccc2n1C1CCNCC1",
    "Measure name": "TGI",
    "Reported measurement": "> 100 µM"
  },
  {
    "Compound": "O=[N+]([O-])c1ccc(C2=NCCO2)cc1",
    "Measure name": "TGI",
    "Reported measurement": "> 100 µM"
  },
  {
    "Compound": "Cc1ccc(N)c(S)c1",
    "Measure name": "TGI",
    "Reported measurement": "46.2 µM"
  },
  {
    "Compound": "COc1cc(CN=c2nc(N(C)C)ss2)cc(OC)c1OC",
    "Measure name": "TGI",
    "Reported measurement": "> 10 µM"
  }
]

Next molecule, please.
Incoming: Answer with the recorded TGI for the molecule listed here: `CN1C(=O)C(c2c[nH]c3ccccc23)=C(c2c[nH]c3ccccc23)C1=O`
Outgoing: > 25 µM

----------
Tested on: SK-MEL-28 melanoma
Method: NCI tumour cell line growth inhibition, 48 h
Measure name: TGI

[
  {
    "Molecule": "Sc1cccc2cccnc12",
    "Assay target": "SK-MEL-28 melanoma",
    "Reported measurement": "16.2 µM"
  },
  {
    "Molecule": "CCCCCCCCCCCCCCCCOCC(COP(=O)(O)OCC1OC(n2cc(CC)c(=O)[nH]c2=O)CC1O)OC(=O)CCCCCCCCCCCCCCC (stereo unspecified)",
    "Assay target": "SK-MEL-28 melanoma",
    "Reported measurement": "> 100 µM"
  },
  {
    "Molecule": "Brc1ccc(C2=NCSC(c3ccc(Br)cc3)=N2)cc1",
    "Assay target": "SK-MEL-28 melanoma",
    "Reported measurement": "> 100 µM"
  },
  {
    "Molecule": "O=C(N/N=C/c1ccc(Cl)cc1)c1ccc(NC(=O)c2ccccn2)cc1",
    "Assay target": "SK-MEL-28 melanoma",
    "Reported measurement": "> 100 µM"
  },
  {
    "Molecule": "Cc1ccc(S(=O)c2ccccc2[N+](=O)[O-])cc1 (stereo unspecified)",
    "Assay target": "SK-MEL-28 melanoma",
    "Reported measurement": "> 100 µM"
  }
]

Incoming: Look up and state reported TGI for `C=CCOC(=O)Cn1cnc2c(N)ncnc21`
Outgoing: > 100 µM

----------
Test system: OVCAR-3 ovarian
Method: NCI tumour cell line growth inhibition, 48 h
Measure name: TGI

Below are worked cases with known answers.
[
  {
    "Compound": "CC(C)=CC[C@@H]1CC2(CC=C(C)C)C(=O)C(OC3(C(=O)c4ccccc4)C(=O)C4(CC=C(C)C)C[C@@H](CC=C(C)C)C(C)(C)C(CC=C(C)C)(C4=O)C3=O)(C(=O)c3ccccc3)C(=O)C(CC=C(C)C)(C2=O)C1(C)C (some centres undefined)",
    "Reported measurement": "3.25 µM"
  },
  {
    "Compound": "O=C(O)c1cc(CCc2ccc(O)c(O)c2)ccc1O",
    "Reported measurement": "> 100 µM"
  },
  {
    "Compound": "COC(=O)C(=O)C(C#N)c1nc2ccccc2s1 (centres undefined)",
    "Reported measurement": "> 100 µM"
  }
]

Lab note: next compound to report on.
Incoming: Find the measured TGI of `O=C(O)/C=C\C(=O)Nc1ccc2c(c1)-c1ccccc1C2` and report it.
Outgoing: > 100 µM
